# assaySystem: Androgen receptor (Homo sapiens) (UniProt P10275)
# Sequence (P10275 whole entry): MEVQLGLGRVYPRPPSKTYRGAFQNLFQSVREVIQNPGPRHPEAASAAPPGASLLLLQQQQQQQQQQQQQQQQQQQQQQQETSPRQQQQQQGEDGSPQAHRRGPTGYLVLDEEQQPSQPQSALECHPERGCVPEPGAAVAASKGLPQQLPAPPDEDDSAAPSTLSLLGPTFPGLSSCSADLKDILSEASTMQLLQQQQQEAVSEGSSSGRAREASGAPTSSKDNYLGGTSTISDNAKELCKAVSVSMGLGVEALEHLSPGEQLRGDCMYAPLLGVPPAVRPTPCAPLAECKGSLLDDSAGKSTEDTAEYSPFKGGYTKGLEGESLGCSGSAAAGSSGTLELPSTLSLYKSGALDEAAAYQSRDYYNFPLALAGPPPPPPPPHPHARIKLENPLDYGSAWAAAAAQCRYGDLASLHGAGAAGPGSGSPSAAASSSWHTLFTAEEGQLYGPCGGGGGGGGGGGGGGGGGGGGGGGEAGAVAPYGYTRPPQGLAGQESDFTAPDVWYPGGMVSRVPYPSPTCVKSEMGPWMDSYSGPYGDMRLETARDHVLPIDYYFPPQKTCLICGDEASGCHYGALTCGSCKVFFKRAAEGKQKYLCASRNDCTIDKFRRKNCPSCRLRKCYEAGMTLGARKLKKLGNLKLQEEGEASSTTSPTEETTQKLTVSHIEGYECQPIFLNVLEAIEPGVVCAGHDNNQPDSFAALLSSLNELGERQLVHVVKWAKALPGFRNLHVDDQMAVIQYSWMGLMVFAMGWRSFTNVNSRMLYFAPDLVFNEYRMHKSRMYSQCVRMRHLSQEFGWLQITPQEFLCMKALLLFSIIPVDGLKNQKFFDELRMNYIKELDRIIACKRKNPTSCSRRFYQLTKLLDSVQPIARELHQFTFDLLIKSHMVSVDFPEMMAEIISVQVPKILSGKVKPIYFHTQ
# testName: Inhibition of AR transcriptional activity in AR-positive human 22Rv1 cells harboring ARE14 construct assessed as downregulation of NKX3.1 protein expression at 5 uM after 24 hrs by immunoblot analysis
Calls of active or inactive are those of the source. The rule behind the calls is not given here.
Classes to choose from: active, inactive

smilesData	cat
CC(=O)O[C@H]1CC[C@@]2(C)C(=CC[C@@H]3[C@@H]2CC[C@]2(C)c4c(C)nc5c(c4C[C@@H]32)c2ccccc2n5C)C1	inactive
CC(=O)O[C@H]1CC[C@@]2(C)C(=CC[C@@H]3[C@@H]2CC[C@]2(C)c4c(C)nc5[nH]c6ccccc6c5c4C[C@@H]32)C1	active

Now look at this entry.
So what was the verdict on "COc1ccc2c(C)c3c(nc2n1)C[C@H]1[C@@H]2CC=C4C[C@@H](O)CC[C@]4(C)[C@H]2CC[C@]31C" in this test?
active

====

# assaySystem: Androgen receptor (Homo sapiens)
# testName: Inhibition of AR transcriptional activity in AR-positive human 22Rv1 cells harboring ARE14 construct assessed as downregulation of NKX3.1 protein expression at 5 uM after 24 hrs by immunoblot analysis
Activity calls are given as the source filed them. The rule behind the calls is not given here.
measuredMetric: NKX3.1 protein downregulation (active/not active)

smilesData	result
CC(=O)O[C@H]1CC[C@@]2(C)C(=CC[C@@H]3[C@@H]2CC[C@@]2(C)[C@H]3C[C@@H]3C(=O)[C@@]2(C)Nc2nc4ccccc4n23)C1	inactive
CC(=O)O[C@H]1CC[C@@]2(C)C(=CC[C@@H]3[C@@H]2CC[C@]2(C)c4c(C)nc5nccn5c4C[C@@H]32)C1	inactive
C[C@]12CC[C@H](O)CC1=CC[C@@H]1[C@@H]2CC[C@]2(C)/C(=N/n3cnc4ccccc43)CC[C@@H]12	inactive

====

# assaySystem: Androgen receptor (Homo sapiens) (UniProt P10275)
# testName: Inhibition of AR transcriptional activity in AR-positive human 22Rv1 cells harboring ARE14 construct assessed as downregulation of NKX3.1 protein expression at 5 uM after 24 hrs by immunoblot analysis
The source made the active and inactive calls. The rule behind the calls is not given here.
measuredMetric: NKX3.1 protein downregulation (active/not active)

smilesData	result
CC(=O)O[C@H]1CC[C@@]2(C)C(=CC[C@@H]3[C@@H]2CC[C@@]2(C)[C@H]3C[C@@H]3C(=O)[C@@]2(C)Nc2nc4cc(C)c(C)cc4n23)C1	inactive
CC(=O)O[C@H]1CC[C@@]2(C)C(=CC[C@H]3[C@@H]4C[C@@H](Nc5nc6ccccc6[nH]5)[C@@H](C(C)=O)[C@@]4(C)CC[C@@H]32)C1	inactive
CC(=O)O[C@H]1CC[C@@]2(C)C(=CC[C@H]3[C@@H]4C[C@@H](Nc5nc6ccccc6s5)[C@H](C(C)=O)[C@@]4(C)CC[C@@H]32)C1	inactive
CC(=O)O[C@H]1CC[C@@]2(C)C(=CC[C@@H]3[C@@H]2CC[C@]2(C)c4c(C)nc5nc6cc(C)c(C)cc6n5c4C[C@@H]32)C1	inactive
CC(=O)O[C@H]1CC[C@@]2(C)C(=CC[C@@H]3[C@@H]2CC[C@]2(C)c4c(C)nc5nc6ccc(Cl)cc6n5c4C[C@@H]32)C1	inactive
CC(=O)O[C@H]1CC[C@@]2(C)C(=CC[C@@H]3[C@@H]2CC[C@]2(C)c4c(C)nc5nc6ccccc6n5c4C[C@@H]32)C1	inactive

Alright, here's another molecule for you.
Determine its reported NKX3.1 protein downregulation (active/not active): "CC(=O)O[C@H]1CC[C@@]2(C)C(=CC[C@@H]3[C@@H]2CC[C@]2(C)c4c(C)nc5nc6cc(Cl)ccc6n5c4C[C@@H]32)C1"
inactive
